Origin of measurements: ChEMBL document CHEMBL3885861

Species on record: Rattus norvegicus
Assay: Open TG-GATES - Regimen: Single
Format: toxicity, organism-based, Sprague-Dawley
Parameters: regimen Single, gender Male, age 6 weeks
Conditions: in vivo, po, 0 mg/kg, 6 h, tissue Liver, route gavage, dose level Control
REPORTED ENDPOINT: LIVER (g)

• CC(=O)Nc1nnc(S(N)(=O)=O)s1 [ACETAZOLAMIDE] = 9
• COc1cc([C@@H]2c3cc4c(cc3[C@@H](O[C@@H]3O[C@@H]5CO[C@@H](C)O[C@H]5[C@H](O)[C@H]3O)[C@H]3COC(=O)[C@H]23)OCO4)cc(OC)c1O [ETOPOSIDE] = 9.1
• Cc1cccc(Nc2ccccc2C(=O)O)c1C [MEFENAMIC ACID] = 8.8
• C#C[C@]1(O)CC[C@H]2[C@@H]3CCC4=Cc5oncc5C[C@]4(C)[C@H]3CC[C@@]21C [DANAZOL] = 9.1

* * *

Species on record: Rattus norvegicus
Experiment: Open TG-GATES - Regimen: Daily Repeat
Type: toxicity, organism-based, Sprague-Dawley
Design: regimen Daily Repeat, gender Male, age 6 weeks
Settings: in vivo, po, 0 mg/kg, […], tissue Plasma, route gavage, dose level Control, time 14 day
REPORTED ENDPOINT: K (meq/L)

* CN1C(C(=O)Nc2ccccn2)=C(O)c2sc(Cl)cc2S1(=O)=O | 4
* Clc1c(Cl)c(Cl)c(Cl)c(Cl)c1Cl | 4.9
* O=C(O)Cc1ccccc1Nc1c(Cl)cccc1Cl | 3.7

* * *

Species on record: Rattus norvegicus
Test: Open TG-GATES - Regimen: Single
Format: toxicity, organism-based, Sprague-Dawley
Set-up: regimen Single, gender Male, age 6 weeks
Conditions: in vivo, po, 0 mg/kg, 24 h, tissue Blood, route gavage, dose level Control
REPORTED ENDPOINT: Plat (x10_4/uL)

- C#C[C@]1(O)CC[C@H]2[C@@H]3CCC4=Cc5oncc5C[C@]4(C)[C@H]3CC[C@@]21C [DANAZOL]: 114.7
- CCOC(=O)[C@H](CCc1ccccc1)N[C@@H](C)C(=O)N1CCC[C@H]1C(=O)O: 117.1
- CC(=O)Nc1nnc(S(N)(=O)=O)s1 [ACETAZOLAMIDE]: 110.7

* * *

Species on record: Rattus norvegicus
Test: Open TG-GATES - Regimen: Daily Repeat
Assay type: toxicity, organism-based, Sprague-Dawley
Set-up: regimen Daily Repeat, gender Male, age 6 weeks
Details: in vivo, po, 0 mg/kg, 72 h, tissue Plasma, route gavage, dose level Control, time 3 day
Cut-off 200 IU/L on LDH: below means Y, at or above means N.

• CC(CN1c2ccccc2Sc2ccccc21)N(C)C (configuration not stated) = Y
• Cc1cccc(Nc2ccccc2C(=O)O)c1C = Y
• Clc1c(Cl)c(Cl)c(Cl)c(Cl)c1Cl = Y
• O=C(O)Cc1ccccc1Nc1c(Cl)cccc1Cl = Y
• CN(C)[C@@H]1C(O)=C(C(N)=O)C(=O)[C@@]2(O)C(O)=C3C(=O)c4c(O)cccc4[C@@](C)(O)[C@H]3C[C@@H]12 = Y
• C1CCC(C(CC2CCCCN2)C2CCCCC2)CC1 (configuration not stated) = N
• CN1C(C(=O)Nc2ccccn2)=C(O)c2sc(Cl)cc2S1(=O)=O = N

* * *

Documented Mono across a set of compounds
Species on record: Rattus norvegicus
Assay: Open TG-GATES - Regimen: Single
Type: toxicity, organism-based, Sprague-Dawley
Parameters: regimen Single, gender Male, age 6 weeks
Settings: in vivo, po, 0 mg/kg, 9 h, tissue Blood, route gavage, dose level Control
REPORTED ENDPOINT: Mono (%)

- COc1cc([C@@H]2c3cc4c(cc3[C@@H](O[C@@H]3O[C@@H]5CO[C@@H](C)O[C@H]5[C@H](O)[C@H]3O)[C@H]3COC(=O)[C@H]23)OCO4)cc(OC)c1O [ETOPOSIDE]: 9.8
- CN1C(C(=O)Nc2ccccn2)=C(O)c2sc(Cl)cc2S1(=O)=O [LORNOXICAM]: 3.2
- C1CCC(C(CC2CCCCN2)C2CCCCC2)CC1 (stereo not given) [PERHEXILINE]: 1.8
- CC(=O)Nc1nnc(S(N)(=O)=O)s1 [ACETAZOLAMIDE]: 2.2
- Cc1cccc(Nc2ccccc2C(=O)O)c1C [MEFENAMIC ACID]: 2.2

* * *

Species: Rattus norvegicus
Experiment: Open TG-GATES - Regimen: Single
Format: toxicity, organism-based, Sprague-Dawley
Set-up: regimen Single, gender Male, age 6 weeks
Conditions: in vivo, po, 0 mg/kg, 9 h, tissue Plasma, route gavage, dose level Control
REPORTED ENDPOINT: ALP (IU/L)

- CCOC(=O)[C@H](CCc1ccccc1)N[C@@H](C)C(=O)N1CCC[C@H]1C(=O)O: 772.2
- CC(=O)Nc1nnc(S(N)(=O)=O)s1 [ACETAZOLAMIDE]: 1423.8
- C#C[C@]1(O)CC[C@H]2[C@@H]3CCC4=Cc5oncc5C[C@]4(C)[C@H]3CC[C@@]21C [DANAZOL]: 1266

* * *

Species on record: Rattus norvegicus
Experiment: Open TG-GATES - Regimen: Daily Repeat
Type: toxicity, organism-based, Sprague-Dawley
Design: regimen Daily Repeat, gender Male, age 6 weeks
Conditions: in vivo, po, 0 mg/kg, […], tissue Plasma, route gavage, dose level Control, time 28 day
REPORTED ENDPOINT: BUN (mg/dL)

• CN(C)[C@@H]1C(O)=C(C(N)=O)C(=O)[C@@]2(O)C(O)=C3C(=O)c4c(O)cccc4[C@@](C)(O)[C@H]3C[C@@H]12 [TETRACYCLINE] = 20.8
• CN1C(C(=O)Nc2ccccn2)=C(O)c2sc(Cl)cc2S1(=O)=O [LORNOXICAM] = 15.8
• Cc1cccc(Nc2ccccc2C(=O)O)c1C [MEFENAMIC ACID] = 18.8
• CC(=O)Nc1nnc(S(N)(=O)=O)s1 [ACETAZOLAMIDE] = 18.8

* * *

Organism: Rattus norvegicus
Experiment: Open TG-GATES - Regimen: Single
Assay type: toxicity, organism-based, Sprague-Dawley
Set-up: regimen Single, gender Male, age 6 weeks
Settings: in vivo, po, 0 mg/kg, 6 h, tissue Plasma, route gavage, dose level Control
Documented TG across a set of molecules
REPORTED ENDPOINT: TG

* Cc1cccc(Nc2ccccc2C(=O)O)c1C | 39.8 mg/dL
* CN1C(C(=O)Nc2ccccn2)=C(O)c2sc(Cl)cc2S1(=O)=O | 64.8 mg/dL
* COc1cc([C@@H]2c3cc4c(cc3[C@@H](O[C@@H]3O[C@@H]5CO[C@@H](C)O[C@H]5[C@H](O)[C@H]3O)[C@H]3COC(=O)[C@H]23)OCO4)cc(OC)c1O [ETOPOSIDE] | 68.4 mg/dL
* CC(=O)Nc1nnc(S(N)(=O)=O)s1 [ACETAZOLAMIDE] | 48.2 mg/dL

* * *

Organism: Rattus norvegicus
Assay: Open TG-GATES - Regimen: Single
Format: toxicity, organism-based, Sprague-Dawley
Parameters: regimen Single, gender Male, age 6 weeks
Details: in vivo, po, 0 mg/kg, 6 h, tissue Plasma, route gavage, dose level Control
REPORTED ENDPOINT: TC (mg/dL)

* Cc1cccc(Nc2ccccc2C(=O)O)c1C | 79.4
* C1CCC(C(CC2CCCCN2)C2CCCCC2)CC1 (stereo not drawn) | 81.2
* CC(=O)Nc1nnc(S(N)(=O)=O)s1 [ACETAZOLAMIDE] | 78

* * *

Species on record: Rattus norvegicus
Assay: Open TG-GATES - Regimen: Single
Format: toxicity, organism-based, Sprague-Dawley
Design: regimen Single, gender Male, age 6 weeks
Conditions: in vivo, po, 0 mg/kg, 24 h, tissue Plasma, route gavage, dose level Control
REPORTED ENDPOINT: PL

• O=[N+]([O-])c1ccc2c(c1)Cc1ccccc1-2 [2-NITROFLUORENE] = 149 mg/dL
• Clc1c(Cl)c(Cl)c(Cl)c(Cl)c1Cl [PERCHLOROBENZENE] = 131.4 mg/dL
• CC(CN1c2ccccc2Sc2ccccc21)N(C)C (stereo not given) [PROMETHAZINE] = 141.4 mg/dL
• Cc1cccc(Nc2ccccc2C(=O)O)c1C [MEFENAMIC ACID] = 147.8 mg/dL
• COc1cc([C@@H]2c3cc4c(cc3[C@@H](O[C@@H]3O[C@@H]5CO[C@@H](C)O[C@H]5[C@H](O)[C@H]3O)[C@H]3COC(=O)[C@H]23)OCO4)cc(OC)c1O [ETOPOSIDE] = 161.6 mg/dL

* * *

Species: Rattus norvegicus
Test: Open TG-GATES - Regimen: Daily Repeat
Assay type: toxicity, organism-based, Sprague-Dawley
Set-up: regimen Daily Repeat, gender Male, age 6 weeks
Conditions: in vivo, po, 0 mg/kg, […], tissue Blood, route gavage, dose level Control, time 7 day
REPORTED ENDPOINT: Lym (%)

* C1CCC(C(CC2CCCCN2)C2CCCCC2)CC1 (stereo not given) | 81.8
* Cc1cccc(Nc2ccccc2C(=O)O)c1C | 81.4
* CN1C(C(=O)Nc2ccccn2)=C(O)c2sc(Cl)cc2S1(=O)=O | 82
* CN(C)[C@@H]1C(O)=C(C(N)=O)C(=O)[C@@]2(O)C(O)=C3C(=O)c4c(O)cccc4[C@@](C)(O)[C@H]3C[C@@H]12 | 80.8
* CCOC(=O)[C@H](CCc1ccccc1)N[C@@H](C)C(=O)N1CCC[C@H]1C(=O)O | 78.8
